These records show IC50 for GRK5 (Homo sapiens).

Solved cases (3 shown):
COc1ccc([C@@H](C)NC(=O)/C(C#N)=C/c2c[nH]c3ncc(C4=CCCCC4)cc23)cc1OC ... 100 to 500 nM
COc1ccc([C@@H](C)NC(=O)/C(C#N)=C/c2c[nH]c3ncc(-c4ccc(CCN(C)C)cc4)cc23)cc1OC ... ≤ 50 nM
N#C/C(=C\c1c[nH]c2ncc(Cl)cc12)C(=O)NCc1ccccc1Cl ... 1000 to 10000 nM

Please look up its IC50: COc1ccc([C@@H](C)NC(=O)/C=C/c2c[nH]c3nccc(-c4cccc(C(N)=O)c4)c23)cc1OC 50 to 100 nM

Recorded IC50 for COc1cc(C(C)NC(=O)/C=C/c2c[nH]c3ncc(-c4cnn(C)c4)cc23)ccc1[S+](C)[O-] (stereo not shown) , please? 100 to 500 nM

Item under review: COc1ccc([C@@H](C)NC(=O)/C(C#N)=C/c2c[nH]c3ncc(-c4ccc(N(C)C)nc4)cc23)cc1OC . Reported IC50? ≤ 50 nM

Quick one: IC50 of Cc1c(-c2cnn(C)c2)cnc2[nH]cc(/C=C(\C#N)C(=O)N[C@H](C)c3ccc(Cl)cc3)c12 ? 500 to 1000 nM

---

Target sequence: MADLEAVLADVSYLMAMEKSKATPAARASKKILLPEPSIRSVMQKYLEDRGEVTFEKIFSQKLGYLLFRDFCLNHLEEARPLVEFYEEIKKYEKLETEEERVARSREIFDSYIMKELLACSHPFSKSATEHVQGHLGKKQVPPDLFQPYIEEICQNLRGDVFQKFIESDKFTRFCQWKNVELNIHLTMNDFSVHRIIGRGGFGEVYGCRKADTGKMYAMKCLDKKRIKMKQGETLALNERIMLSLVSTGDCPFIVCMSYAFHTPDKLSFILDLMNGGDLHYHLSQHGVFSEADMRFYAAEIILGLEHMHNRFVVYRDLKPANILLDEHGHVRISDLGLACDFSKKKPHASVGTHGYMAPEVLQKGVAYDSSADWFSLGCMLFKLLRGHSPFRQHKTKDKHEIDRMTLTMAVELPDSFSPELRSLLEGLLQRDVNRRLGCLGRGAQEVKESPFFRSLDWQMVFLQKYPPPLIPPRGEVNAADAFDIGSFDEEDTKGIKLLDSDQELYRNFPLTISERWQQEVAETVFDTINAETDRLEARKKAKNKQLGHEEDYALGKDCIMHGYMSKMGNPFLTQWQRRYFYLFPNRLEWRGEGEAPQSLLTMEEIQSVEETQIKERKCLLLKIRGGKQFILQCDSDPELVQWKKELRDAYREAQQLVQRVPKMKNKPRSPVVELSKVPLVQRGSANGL
pIC50: −log10 of the molar value.
VALUE TYPE: pIC50

Examples with their reported pIC50 follow.
N#C/C(=C\c1c[nH]c2ncccc12)C(=O)NCc1cccc(C(F)(F)F)c1 [Example 61] ... 5.00 to 6.00
COc1ccc([C@@H](C)NC(=O)/C(C#N)=C/c2c[nH]c3ncc(O[C@H]4CCOC4)cc23)cc1OC [Example 108] ... 5.00 to 6.00
COc1ccc(-c2cnc3[nH]cc(/C=C(\C#N)C(=O)N[C@H](C)c4ccc(OC)c(OC)c4)c3c2)cc1OC [Example 145] ... < 5.00
COc1ccc([C@@H](C)NC(=O)/C(C#N)=C/c2c[nH]c3ncc(-c4cnn(CCN5CCOCC5)c4)cc23)cc1OC [Example 160] ... 5.00 to 6.00
COc1ccc([C@@H](C)NC(=O)/C(C#N)=C/c2c[nH]c3ncc(-c4ccc(C#N)cc4)cc23)cc1OC [Example 139] ... < 5.00
COc1ccc([C@@H](C)NC(=O)/C(C#N)=C/c2c[nH]c3ncc(-c4cnn(Cc5ccccc5)c4)cc23)cc1OC [Example 159] ... < 5.00

From here, focus on the item given below.
Consider the compound COc1ccc([C@@H](C)NC(=O)/C(C#N)=C/c2c[nH]c3nccc(-c4cc(F)cc(F)c4)c23)cc1OC [Example 178] and give its measured pIC50. < 5.00
